- target: human FPR2 (Homo sapiens (Human), UniProt P25090)
- Sequence (P25090 whole entry): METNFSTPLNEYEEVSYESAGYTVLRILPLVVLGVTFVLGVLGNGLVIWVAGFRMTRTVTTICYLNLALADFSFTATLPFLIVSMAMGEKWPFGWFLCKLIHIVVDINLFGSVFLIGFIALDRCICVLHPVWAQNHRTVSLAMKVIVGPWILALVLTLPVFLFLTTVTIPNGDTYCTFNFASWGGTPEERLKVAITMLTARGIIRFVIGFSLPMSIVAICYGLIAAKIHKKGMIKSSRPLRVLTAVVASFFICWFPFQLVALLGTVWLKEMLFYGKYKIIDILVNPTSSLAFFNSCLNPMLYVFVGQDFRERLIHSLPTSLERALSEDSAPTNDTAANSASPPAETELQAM
- measurement protocol: FPR2 cyclic adenosine monophosphate (cAMP) assay
- Type: cell-based
- test parameters: CHO cells overexpressing human FPR2; forskolin 5 μM, IBMX 200 μM; inhibition of cAMP production, HTRF; read-out: hFPR2 cAMP2 EC50
- Description: N-formyl peptide receptors (FPRs) are a family of chemo attractant receptors that facilitate leukocyte response during inflammation. FPRs belong to the seven-transmembrane G protein-coupled receptor superfamily and are linked to inhibitory G-proteins (Gi). […] FPR2 and FPR1 Cyclic Adenosine Monophosphate (cAMP) Assays. […] The level of intracellular cAMP was determined using the HTRF HiRange cAMP assay reagent kit (Cisbio) according to manufacturer's instruction. […]
Please respond with reported pEC50 for every item in the list.
Conceptually, pEC50 converts a concentration in mol/L into minus its log10.

Summary for this molecule, COc1cc(F)c([C@@H]2CN(c3nccc(NCCS(C)(=O)=O)c3C(F)(F)F)C(=O)[C@H]2NC(=O)N[C@H]2CC[C@H](C(F)F)CC2)c(F)c1 : pEC50 is 8.14

What the record says about COc1ccc([C@H]2C[C@@H]2NC(=O)N[C@@H]2C(=O)N(c3ncccc3C(F)(F)F)C[C@H]2c2c(F)cc(OC)cc2F)cc1 [Example 49] : pEC50 is 8.00

The molecule listed as COCCn1cccc(N2C(=O)[C@@H](NC(=O)NC3CCc4cc(OC)ccc4C3(C)C)[C@H](c3c(F)cc(OC)cc3F)[C@@H]2C)c1=O (stereo partly drawn) [Example 62] has a reported pEC50 of 7.44

Lab book: pEC50 of COc1cc(F)c([C@@H]2CN(c3nccc(N4CCC(C)(O)C4)c3C(F)(F)F)C(=O)[C@H]2NC(=O)N[C@H]2CC[C@H](C(F)F)CC2)c(F)c1 (single isomer, unassigned) [Example 91] noted as 8.11

The reported value for COCCn1cccc(N2C(=O)[C@@H](NC(=O)NC3CCc4cc(OC)ccc4C3(C)C)[C@H](c3c(F)cc(OC)cc3F)[C@@H]2C)c1=O (stereo partly drawn) [Example 40] in terms of pEC50 is 8.28

The measured pEC50 associated with CCn1cccc(N2C[C@@H](c3c(F)cc(OC)cc3F)[C@H](NC(=O)NC3CCc4cc(OC)ccc4C3)C2=O)c1=O (stereo partly drawn) [Example 41] reads 8.25

###

- target: UniProt:P21462
- Sequence (P21462 whole entry): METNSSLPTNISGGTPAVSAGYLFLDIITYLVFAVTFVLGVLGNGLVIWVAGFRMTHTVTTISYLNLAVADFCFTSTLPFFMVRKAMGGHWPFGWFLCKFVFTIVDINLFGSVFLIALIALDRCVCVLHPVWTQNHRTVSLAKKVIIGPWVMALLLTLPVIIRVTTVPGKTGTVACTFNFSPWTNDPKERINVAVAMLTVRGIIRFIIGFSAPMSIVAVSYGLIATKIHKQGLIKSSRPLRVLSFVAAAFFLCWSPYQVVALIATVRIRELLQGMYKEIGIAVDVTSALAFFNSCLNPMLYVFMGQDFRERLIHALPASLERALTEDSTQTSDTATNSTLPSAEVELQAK
- measurement protocol: FPR1 cyclic adenosine monophosphate (cAMP) assay
- Assay type: cell-based
- test parameters: CHO cells overexpressing human FPR1; forskolin 10 μM, IBMX 200 μM; inhibition of cAMP production, HTRF; read-out: hFPR1 cAMP EC50
readout name: pEC50
The quantity pEC50 is defined as the negative base-10 logarithm of the molar concentration.

Summary for this compound, CCn1nccc(N2C[C@@H](c3c(F)cc(OC)cc3F)[C@H](NC(=O)NC3CCc4cc(OC)ccc4C3)C2=O)c1=O (single isomer, unassigned) [Example 86] : pEC50 is 9.52

Kindly note the recorded pEC50 for COc1cc(F)c([C@@H]2CN(c3nccc(N4CCC(C)(O)C4)c3C(F)(F)F)C(=O)[C@H]2NC(=O)N[C@H]2CC[C@H](C(F)F)CC2)c(F)c1 (single isomer, unassigned) [Example 91] , which is 6.11

Quick note, pEC50 for COc1cc(F)c([C@@H]2CN(c3ncccc3C(F)(F)F)C(=O)[C@H]2NC(=O)NC2CCc3ccccc3C2)c(F)c1 (stereo partly drawn) landed at 7.74

Looking up COCCn1ccc(OC)c(N2C[C@@H](c3c(F)cc(OC)cc3F)[C@H](NC(=O)NC3CCc4cc(Cl)ccc4C3)C2=O)c1=O (stereo partly drawn) , I found its pEC50 recorded as 8.89

pEC50 for COc1cc(F)c([C@H]2[C@H](NC(=O)NC3CCc4cc(OC)ccc4C3)C(=O)N(c3cccn(CCO)c3=O)[C@H]2C)c(F)c1 (single isomer, unassigned) [Example 89] is 8.37

The recorded pEC50 for entry COc1cc(F)c([C@@H]2CN(c3ncccc3C(F)(F)F)C(=O)[C@H]2NC(=O)NC2CCc3cc(OC)ccc3C2(C)C)c(F)c1 (stereo partly drawn) equals 6.66

// CCn1nccc(N2C[C@@H](c3c(F)cc(OC)cc3F)[C@H](NC(=O)NC3CCc4cc(OC)ccc4C3)C2=O)c1=O (single isomer, unassigned) [Example 87] : pEC50 value = 8.32

Measured pEC50 of COc1cc(F)c([C@@H]2CN(c3nccc(NC4CCOCC4)c3C(F)(F)F)C(=O)[C@H]2NC(=O)N[C@H]2CC[C@H](C(F)F)CC2)c(F)c1 : 5.32

Field pEC50 (entry COCCn1ccc(OC)c(N2C[C@@H](c3c(F)cc(OC)cc3F)[C@H](NC(=O)NC3CCc4cc(OC)ccc4C3)C2=O)c1=O (stereo partly drawn) ) reads 8.92

The reported value for CCn1cccc(N2C[C@@H](c3ccc(OC)cc3)[C@H](NC(=O)NC3CCc4cc(OC)ccc4C3)C2=O)c1=O (stereo partly drawn) in terms of pEC50 is 9.10

// field: pEC50; key: COc1cc(F)c([C@@H]2CN(c3cccn(CC(O)C(F)(F)F)c3=O)C(=O)[C@H]2NC(=O)NC2CCc3cc(OC)ccc3C2)c(F)c1 (single isomer, unassigned) [Example 78] ; value = 7.00

###

- target: UniProtKB P25090
- measurement protocol: FPR2 cyclic adenosine monophosphate (cAMP) assay
- Assay type: cell-based
- test parameters: CHO cells overexpressing human FPR2; forskolin 5 μM, IBMX 200 μM; inhibition of cAMP production, HTRF; read-out: hFPR2 cAMP2 EC50
Field: EC50. Provide a value for each of the molecules that follow.
Enter your answer as a number in nM; do not include the unit.

GET /value?item= COCCn1cccc(N2C[C@@H](c3c(F)cc(OC)cc3F)[C@H](NC(=O)NC3CCc4cc(Cl)ccc4C3)C2=O)c1=O (stereo partly drawn) [Example 20] &field=EC50 returns 2.6

Form: molecule = CCn1nccc(N2C[C@@H](c3c(F)cc(OC)cc3F)[C@H](NC(=O)NC3CCc4cc(OC)ccc4C3)C2=O)c1=O (single isomer, unassigned) [Example 87] ; EC50 = 3.2

For record COc1cc(F)c([C@@H]2CN(c3nccc(N4CCN(S(C)(=O)=O)CC4)c3C(F)(F)F)C(=O)[C@H]2NC(=O)N[C@H]2CC[C@H](C(F)F)CC2)c(F)c1 the listed EC50 is 9.1

Please fill in: EC50 reported for COCCn1cccc(N2C[C@@H](c3ccc(OC)cc3)[C@H](NC(=O)NC3CCc4cc(Cl)ccc4C3)C2=O)c1=O (stereo partly drawn) [Example 16] = 1.7

The molecule identified as COc1cc(F)c([C@@H]2CN(c3ncccc3C(F)(F)F)C(=O)[C@H]2NC(=O)NC2CCC3(CC2)CC3)c(F)c1 registered its EC50 at 97

Quick note, EC50 for COc1cc(F)c([C@@H]2CN(c3nccc(N4C[C@@H]5C[C@H]4CN5C)c3C(F)(F)F)C(=O)[C@H]2NC(=O)N[C@H]2CC[C@H](C(F)F)CC2)c(F)c1 (single isomer, unassigned) [Example 97] landed at 0.4

response.value for COc1cc(F)c([C@@H]2CN(c3nccc(N4C[C@@H]5C[C@H]4CN5C)c3C(F)(F)F)C(=O)[C@H]2NC(=O)N[C@H]2CC[C@H](C(F)F)CC2)c(F)c1 (single isomer, unassigned) [Example 96] (field: EC50) = 4.6

According to the records, this molecule CCn1cccc(N2C[C@@H](c3c(F)cc(OC)cc3F)[C@H](NC(=O)NC3CCc4cc(OC)ccc4C3)C2=O)c1=O (stereo partly drawn) [Example 37] displays EC50 of 4.5

The reported EC50 of the molecule CCn1cccc(N2C[C@@H](c3ccc(OC)cc3)[C@H](NC(=O)NC3CCc4cc(OC)ccc4C3)C2=O)c1=O (stereo partly drawn) [Example 13] was 1.3

Measured EC50, CCn1nccc(N2C[C@@H](c3c(F)cc(OC)cc3F)[C@H](NC(=O)NC3CCc4cc(OC)ccc4C3)C2=O)c1=O (single isomer, unassigned) [Example 86] : 1.4

The recorded EC50 for COc1cc(F)c([C@@H]2CN(c3c(OC)ccn(C)c3=O)C(=O)[C@H]2NC(=O)NC2CCc3cc(Cl)ccc3C2)c(F)c1 (stereo partly drawn) is 0.6

Measured EC50, COc1cc(F)c([C@@H]2CN(c3nccc(N4CC(C)(O)C4)c3C(F)(F)F)C(=O)[C@H]2NC(=O)N[C@H]2CC[C@H](C(F)F)CC2)c(F)c1 : 1.6

###

- target: human FPR2 (Homo sapiens (Human))
- measurement protocol: FPR2 cyclic adenosine monophosphate (cAMP) assay
- Assay type: cell-based
- test parameters: CHO cells overexpressing human FPR2; forskolin 5 μM, IBMX 200 μM; inhibition of cAMP production, HTRF; read-out: hFPR2 cAMP2 EC50
Hi there, I'd appreciate the recorded EC50 for every entry that follows.
Reply with the number and its unit after it.

The measured EC50 associated with COc1cc(F)c([C@H]2[C@H](NC(=O)NC3CCc4cc(OC)ccc4C3)C(=O)N(c3cccn(CCO)c3=O)[C@H]2C)c(F)c1 (single isomer, unassigned) [Example 89] reads 7.1 nM

Item: COCCn1cccc(N2C[C@@H](c3c(F)cc(OC)cc3F)[C@H](NC(=O)NC3CCc4cc(OC)ccc4C3)C2=O)c1=O (stereo partly drawn) [Example 53] | EC50: 13 nM

Reported EC50 of CCn1cccc(N2C[C@@H](c3c(F)cc(OC)cc3F)[C@H](NC(=O)NC3CCc4cc(OC)ccc4C3(C)C)C2=O)c1=O (stereo partly drawn) [Example 52] : 13 nM
